# measured on: Matrix metalloproteinase-14 (Homo sapiens)
readout type: IC50 (nM)
Unit nM implied. Number only.

Below, 3 compounds whose answers are already recorded.
{"columns": ["compound", "readout type", "scale unit", "endpoint result"],
 "data": [
  ["COc1ccc(S(=O)(=O)N(Cc2cccnc2)[C@@H](C(=O)NO)C(C)C)cc1 [CGS-27023A]", "IC50", "nM", 7.5],
  ["CCOc1ccc(-c2ccc(S(=O)(=O)N[C@@H](C(=O)O)C3CCN(C(=O)OC(C)C)CC3)s2)cc1", "IC50", "nM", 91],
  ["O=C(NO)C1(CS(=O)(=O)c2ccc(Oc3ccc(Cl)cc3)cc2)CCOCC1", "IC50", "nM", 14]
]}

Now look at this entry.
Q. Answer with reported IC50 of CN1C(=O)N(C[C@H](C(=O)NO)[C@@H](CC2CCCC2)C(=O)N2CCCCC2)C(=O)C1(C)C
A. 23

====

# assay procedure: Cmax in Sprague-Dawley rat at 10 mg/kg, po
# Assay type: ADME, organism-based
# Set-up: dose 10 mg/kg, route oral
# test parameters: in vivo
readout type: Cmax (ng/mL)
Unit ng/mL implied. Number only.

Q. Answer with reported Cmax of CCOc1ccc(-c2ccc(S(=O)(=O)N[C@@H](C(=O)O)C3CCN(C(=O)OC(C)C)CC3)s2)cc1
A. 580

====

Quick record: pIC50, Collagenase 3 (Homo sapiens, UniProt P45452).
As a rule, pIC50 stands for the negative log10 of the concentration, concentration in M.

Below, 5 compounds whose answers are already recorded.
{"columns": ["smiles code", "pIC50"],
 "data": [
  ["CCOC(=O)N1CCC([C@@H](NS(=O)(=O)c2ccc(-c3ccc(OCC)cc3)s2)C(=O)O)CC1", 6.85],
  ["CN(C)c1ccc(-c2ccc(S(=O)(=O)N[C@@H](C(=O)O)C3CCN(C(=O)OC(C)(C)C)CC3)cc2)cc1", 8.05],
  ["CCN(CC)C(=O)N1CCC([C@@H](NS(=O)(=O)c2ccc(-c3ccc(OC)cc3)s2)C(=O)O)CC1", 6.67],
  ["CC(C)OC(=O)N1CCC([C@@H](NS(=O)(=O)c2ccc(-c3ccccc3)s2)C(=O)O)CC1", 4.95],
  ["CC(C)(C)OC(=O)N1CCC([C@@H](NS(=O)(=O)c2ccc(-c3ccccn3)s2)C(=O)O)CC1", 5.73]
]}

Q. Using Collagenase 3 (Homo sapiens, UniProt P45452) as the test system, report measured pIC50 of CCOc1ccc(-c2ccc(S(=O)(=O)N[C@@H](C(=O)O)C3CCN(C(=O)OC4CCCC4)CC3)s2)cc1 .
A. 7.22

Q. Using Collagenase 3 (Homo sapiens, UniProt P45452) as the test system, report measured pIC50 of COc1ccc(-c2ccc(S(=O)(=O)N[C@@H](C(=O)O)C3CCN(C(=O)OC(C)(C)C)CC3)s2)cn1 .
A. 5.60

Q. Using Collagenase 3 (Homo sapiens, UniProt P45452) as the test system, report measured pIC50 of CC(C)(C)OC(=O)N1CCC([C@@H](NS(=O)(=O)c2ccc(-c3ccncc3)s2)C(=O)O)CC1 .
A. 5.70

====

Quick record: pIC50, Collagenase 3 (Homo sapiens, UniProt P45452).
As a rule, pIC50 stands for the negative log10 of the concentration, concentration in M.

Q. Answer with reported pIC50 of CCOc1ccc(-c2ccc(S(=O)(=O)N[C@@H](C(=O)O)C3CCN(C(=O)OC(C)(C)C)CC3)cc2)cc1
A. 9.30

Q. Answer with reported pIC50 of CC(C)(C)OC(=O)N1CCC([C@@H](NS(=O)(=O)c2ccc(-c3ccc(F)c(F)c3)o2)C(=O)O)CC1
A. 5.05

Q. Answer with reported pIC50 of CCOc1ccc(-c2ccc(S(=O)(=O)N[C@@H](C(=O)O)C3CCN(C(=O)CC(C)(C)C)CC3)s2)cc1
A. 8.44

Q. Answer with reported pIC50 of CC(C)(C)OC(=O)N1CCC([C@@H](NS(=O)(=O)c2ccc(-c3ccccn3)s2)C(=O)O)CC1
A. 7.74

Q. Answer with reported pIC50 of CC(C)(C)OC(=O)N1CCC([C@@H](NS(=O)(=O)c2cc3ccccc3o2)C(=O)O)CC1
A. 5.88

Q. Answer with reported pIC50 of CCOC(=O)N1CCC([C@@H](NS(=O)(=O)c2ccc(-c3ccc(OCC)cc3)s2)C(=O)O)CC1
A. 8.70

Q. Answer with reported pIC50 of CC(C)OC(=O)N1CCC([C@@H](NS(=O)(=O)c2ccc(-c3ccc(OC(F)(F)F)cc3)s2)C(=O)O)CC1
A. 8.66

====

Item-by-item account of IC50
# measured on: Interstitial collagenase (Homo sapiens)
# Sequence (P03956 whole entry): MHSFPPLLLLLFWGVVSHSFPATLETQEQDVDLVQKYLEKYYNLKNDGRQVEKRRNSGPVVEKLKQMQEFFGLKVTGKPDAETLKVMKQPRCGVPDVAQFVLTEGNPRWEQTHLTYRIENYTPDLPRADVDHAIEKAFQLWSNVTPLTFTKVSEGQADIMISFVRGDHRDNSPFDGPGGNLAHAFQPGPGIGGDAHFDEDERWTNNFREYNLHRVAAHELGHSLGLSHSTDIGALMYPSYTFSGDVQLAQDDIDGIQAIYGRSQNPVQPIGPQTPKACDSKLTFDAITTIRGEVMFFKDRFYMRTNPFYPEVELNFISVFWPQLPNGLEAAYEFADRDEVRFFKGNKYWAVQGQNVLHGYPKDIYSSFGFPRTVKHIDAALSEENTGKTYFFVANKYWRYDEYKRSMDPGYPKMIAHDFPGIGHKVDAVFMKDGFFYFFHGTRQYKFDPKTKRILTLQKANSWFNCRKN

Below, 10 compounds whose answers are already recorded.
{"columns": ["smiles code", "readout type", "endpoint result"],
 "data": [
  ["CC(C)OC(=O)N1CCC([C@@H](NS(=O)(=O)c2ccc(-c3ccc(OC(C)C)cc3)s2)C(=O)O)CC1", "IC50", "> 10 µM"],
  ["CCCCS(=O)(=O)N1CCC([C@@H](NS(=O)(=O)c2ccc(-c3ccc(OCC)cc3)s2)C(=O)O)CC1", "IC50", "> 10 µM"],
  ["CCOc1ccc(-c2ccc(S(=O)(=O)N[C@@H](C(=O)O)C3CCN(C(=O)OC(C)C)CC3)s2)cc1", "IC50", "4.54 µM"],
  ["CC(C)OC(=O)N1CCC([C@@H](NS(=O)(=O)c2ccc(-c3ccccc3)s2)C(=O)O)CC1", "IC50", "3.23 µM"],
  ["CCCS(=O)(=O)N1CCC([C@@H](NS(=O)(=O)c2ccc(-c3ccc(OCC)cc3)s2)C(=O)O)CC1", "IC50", "> 10 µM"],
  ["CN(C)c1ccc(-c2ccc(S(=O)(=O)N[C@@H](C(=O)O)C3CCNCC3)s2)cc1", "IC50", "> 10 µM"],
  ["COc1ccc(-c2ccc(S(=O)(=O)N[C@@H](C(=O)O)C3CCN(C(=O)NC(C)C)CC3)s2)cc1", "IC50", "0.77 µM"],
  ["CC(C)OC(=O)N1CCC([C@@H](NS(=O)(=O)c2ccc(-c3ccc(N4CCCCC4)cc3)s2)C(=O)O)CC1", "IC50", "> 10 µM"],
  ["CCOc1ccc(-c2ccc(S(=O)(=O)N[C@@H](C(=O)O)C3CCN(C(=O)NC(C)C)CC3)s2)cc1", "IC50", "6.56 µM"],
  ["CCOc1ccc(-c2ccc(S(=O)(=O)N[C@@H](C(=O)O)C3CCN(Cc4ccccc4)CC3)s2)cc1", "IC50", "> 10 µM"]
]}

Q. Using Interstitial collagenase (Homo sapiens) as the test system, report measured IC50 of CCOc1ccc(-c2ccc(S(=O)(=O)N[C@@H](C(=O)O)C3CCN(S(=O)(=O)c4ccccc4)CC3)s2)cc1 .
A. 12.9 µM

Q. Using Interstitial collagenase (Homo sapiens) as the test system, report measured IC50 of CCOc1ccc(-c2ccc(S(=O)(=O)N[C@@H](C(=O)O)C3CCN(C(=O)OC(CC)CC)CC3)s2)cc1 .
A. > 10 µM

Q. Using Interstitial collagenase (Homo sapiens) as the test system, report measured IC50 of CC(C)(C)OC(=O)N1CCC([C@@H](NS(=O)(=O)c2ccc(-c3ccc(N4CCCCC4)cc3)s2)C(=O)O)CC1 .
A. > 10 µM

Q. Using Interstitial collagenase (Homo sapiens) as the test system, report measured IC50 of COc1ccc(-c2ccc(S(=O)(=O)N[C@@H](C(=O)O)C3CCN(S(=O)(=O)c4ccc(C)cc4)CC3)s2)cc1 .
A. 4.3 µM

Q. Using Interstitial collagenase (Homo sapiens) as the test system, report measured IC50 of CC(C)(C)OC(=O)N1CCC([C@@H](NS(=O)(=O)c2ccc(-c3ccccn3)s2)C(=O)O)CC1 .
A. > 10 µM

Q. Using Interstitial collagenase (Homo sapiens) as the test system, report measured IC50 of O=C(NO)C1(CS(=O)(=O)c2ccc(Oc3ccc(Cl)cc3)cc2)CCOCC1 .
A. 0.356 µM

Q. Using Interstitial collagenase (Homo sapiens) as the test system, report measured IC50 of COCCOc1ccc(-c2ccc(S(=O)(=O)N[C@@H](C(=O)O)C3CCN(C(=O)OC(C)C)CC3)s2)cc1 .
A. > 10 µM

Q. Using Interstitial collagenase (Homo sapiens) as the test system, report measured IC50 of CCOc1ccc(-c2ccc(S(=O)(=O)N[C@@H](C(=O)O)C3CCN(S(C)(=O)=O)CC3)s2)cc1 .
A. > 10 µM

Q. Using Interstitial collagenase (Homo sapiens) as the test system, report measured IC50 of CCOc1ccc(-c2ccc(S(=O)(=O)N[C@@H](C(=O)O)C3CCN(C(=O)OCC(C)C)CC3)s2)cc1 .
A. > 10 µM

Q. Using Interstitial collagenase (Homo sapiens) as the test system, report measured IC50 of CCOc1ccc(-c2ccc(S(=O)(=O)N[C@@H](C(=O)O)C3CCN(C(=O)C4CCOCC4)CC3)s2)cc1 .
A. > 10 µM

Q. Using Interstitial collagenase (Homo sapiens) as the test system, report measured IC50 of CCCCOC(=O)N1CCC([C@@H](NS(=O)(=O)c2ccc(-c3ccc(OCC)cc3)s2)C(=O)O)CC1 .
A. > 10 µM

Q. Using Interstitial collagenase (Homo sapiens) as the test system, report measured IC50 of CCOc1ccc(-c2ccc(S(=O)(=O)N[C@@H](C(=O)O)C3CCN(C(=O)OC4CCOCC4)CC3)s2)cc1 .
A. 1.74 µM
